Reported pIC50 is given for each of the following compounds.
assay_target: UniProt P34179
Sequence (P34179 whole entry, looked up): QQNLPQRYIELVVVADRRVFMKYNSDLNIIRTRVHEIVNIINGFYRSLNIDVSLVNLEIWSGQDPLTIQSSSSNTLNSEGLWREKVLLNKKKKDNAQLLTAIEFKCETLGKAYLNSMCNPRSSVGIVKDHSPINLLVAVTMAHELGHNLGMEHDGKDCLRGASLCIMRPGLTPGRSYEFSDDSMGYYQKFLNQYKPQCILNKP
Scale: pIC50 equals -log10([C]), with [C] in mol/L.

compound	endpoint	quantitative_result
CCOP(=O)(OCC)C(Cc1c[nH]c2ccccc12)NC(=O)[C@H](CC(C)C)NC(=O)[C@@H]1CSC(=O)N1 (stereo partly drawn)	pIC50	6.00

Tell me the measured pIC50 of CCOP(=O)(OCC)C(Cc1c[nH]c2ccccc12)NC(=O)[C@H](CC(C)C)NC(=O)c1ccco1 (stereo partly drawn) , please.
6.40

Same for CCOP(=O)(OCC)C(Cc1c[nH]c2ccccc12)NC(=O)[C@H](CC(C)C)NC(=O)c1ccc[nH]1 (stereo partly drawn)
6.66

Same for CC(C)C[C@H](NC(=O)c1ccco1)C(=O)NC(Cc1c[nH]c2ccccc12)P(=O)(OCc1ccccc1)OCc1ccccc1 (stereo partly drawn)
5.14

Same for CCOP(=O)(OCC)C(Cc1c[nH]c2ccccc12)NC(=O)[C@H](CC(C)C)NC(=O)[C@@H]1CCC(=O)O1 (stereo partly drawn)
6.26

Same for CCOP(=O)(OCC)C(Cc1c[nH]c2ccccc12)NC(=O)[C@H](CC(C)C)NC(=O)[C@@H]1CCCN1C(=O)OCc1ccccc1 (stereo partly drawn)
4.66

All figures here come from patent US6339160B1.
